measured_on: T1, cynomolgus monkey CD19 on peripheral blood B cells (cynomolgus monkey (Macaca fascicularis), UniProt A0A2K5W8L9 20-557)
T1 construct: whole, on cells; also called cynomolgus monkey B cells
T1 sequence: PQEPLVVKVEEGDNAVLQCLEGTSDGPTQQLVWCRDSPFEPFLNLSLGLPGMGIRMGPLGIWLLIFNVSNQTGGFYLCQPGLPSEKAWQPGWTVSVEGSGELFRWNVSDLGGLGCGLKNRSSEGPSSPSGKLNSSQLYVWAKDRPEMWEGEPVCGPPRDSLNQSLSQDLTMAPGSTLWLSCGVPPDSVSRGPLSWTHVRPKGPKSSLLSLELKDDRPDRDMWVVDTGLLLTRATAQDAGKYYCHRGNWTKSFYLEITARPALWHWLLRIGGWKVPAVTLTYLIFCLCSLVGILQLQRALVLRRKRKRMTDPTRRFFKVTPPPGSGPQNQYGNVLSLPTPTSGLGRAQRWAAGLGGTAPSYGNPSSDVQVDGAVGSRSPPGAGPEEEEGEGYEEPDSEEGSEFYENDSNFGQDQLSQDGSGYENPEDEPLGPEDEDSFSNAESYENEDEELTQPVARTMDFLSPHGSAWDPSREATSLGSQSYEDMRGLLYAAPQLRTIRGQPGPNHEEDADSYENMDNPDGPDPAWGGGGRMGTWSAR
test_summary: FACS, cynomolgus PBMC, CD20+ B cells
measure: Proportion of chimeric antibody positive cells to B cells (%) at 100 nM
Kindly answer with a numeric value in %, unit omitted.

binder	numeric_result
F3.81.2 (antibody, human IgG1, V domains shown, human-murine chimeric antibody, human IgG1) VH: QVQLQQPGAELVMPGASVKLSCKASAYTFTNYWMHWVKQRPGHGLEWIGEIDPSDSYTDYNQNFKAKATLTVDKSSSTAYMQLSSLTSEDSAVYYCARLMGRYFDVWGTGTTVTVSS VL: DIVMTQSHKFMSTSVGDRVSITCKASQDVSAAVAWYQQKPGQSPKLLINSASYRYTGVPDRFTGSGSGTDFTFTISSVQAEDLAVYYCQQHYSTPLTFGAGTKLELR	38

Turning now to a further binder:
Exam item: Quick check: Proportion of chimeric antibody positive cells to B cells (%) at 100 nM of F4.152.7 (antibody, human IgG1, V domains shown, human-murine chimeric antibody, human IgG1) VH: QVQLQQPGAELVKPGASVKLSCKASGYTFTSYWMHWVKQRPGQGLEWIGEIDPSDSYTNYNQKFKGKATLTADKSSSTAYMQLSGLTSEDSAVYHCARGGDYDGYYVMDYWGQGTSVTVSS VL: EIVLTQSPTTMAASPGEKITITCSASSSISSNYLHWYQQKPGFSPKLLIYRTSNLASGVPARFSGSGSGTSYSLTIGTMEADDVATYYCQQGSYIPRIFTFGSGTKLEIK ?
Marked response: 3
